B1: Probable E3 ubiquitin-protein ligase MID2, residues 191 to 235; numbered along this chain, Q9UJV3 (parent)
chain: RGITCLDHENEKVNMYCVSDDQLICALCKLVGRHRDHQVASLNDR

# Variants of: B1
# protocol-details: abundance fitness (aPCA) (normalised: wild type 0, dead -1); higher = more abundant; growth selection in yeast, the domain comes from the species named
# condition-info: Homo sapiens
Label t when abundance fitness is at or above -0.3; otherwise label f.

RGITCLDHENEKVNMYCVSDDQLICALCKLVGRHRDHQVASLNDA [R45A] : t
RGITCLDHELEKVNMYCVSDDQLICALCKLVGRHRDHQVASLNDR [N10L] : t
HGITCLDHENEKVNMYCVSDDQLICALCKLVGRHRDHQVASLNDR [R1H] : t

Challenge: Decide: is the reported value of abundance fitness for RGITCLDHENEKVNMYCVSDDPLICALCKLVGRHRDHQVASLNDR [Q22P] equal to or greater than -0.3?
Response given: f

Challenge: Decide: is the reported value of abundance fitness for RYITCLDHENEKVNMYCVSDDQLICALCKLVGRHRDHQVASLNDR [G2Y] equal to or greater than -0.3?
Response given: t

Challenge: Decide: is the reported value of abundance fitness for RGITCLDHENEKVNMYCVSDDQLICALCKLVCRHRDHQVASLNDR [G32C] equal to or greater than -0.3?
Response given: f

Challenge: Decide: is the reported value of abundance fitness for RGITCLFHENEKVNMYCVSDDQLICALCKLVGRHRDHQVASLNDR [D7F] equal to or greater than -0.3?
Response given: t

Challenge: Decide: is the reported value of abundance fitness for RGITCLDHENEKVNMYCVSDDQLICALCKLVGRHRLHQVASLNDR [D36L] equal to or greater than -0.3?
Response given: t

Challenge: Decide: is the reported value of abundance fitness for RGITCLDHENEKVNMYCVSDDQLICAMCKLVGRHRDHQVASLNDR [L27M] equal to or greater than -0.3?
Response given: t

Challenge: Decide: is the reported value of abundance fitness for RGITCLDHENEKVNMYCVSDDQLICALCKLVGRHRDHQVASPNDR [L42P] equal to or greater than -0.3?
Response given: f

Challenge: Decide: is the reported value of abundance fitness for RGITCLDHENEKVNMYCVSDDQLICALCKEVGRHRDHQVASLNDR [L30E] equal to or greater than -0.3?
Response given: t

Challenge: Decide: is the reported value of abundance fitness for RGITCLLHENEKVNMYCVSDDQLICALCKLVGRHRDHQVASLNDR [D7L] equal to or greater than -0.3?
Response given: t

Challenge: Decide: is the reported value of abundance fitness for RGITCLDHENEKVNMYCVFDDQLICALCKLVGRHRDHQVASLNDR [S19F] equal to or greater than -0.3?
Response given: t

Challenge: Decide: is the reported value of abundance fitness for RGITCLDHENEKWNMYCVSDDQLICALCKLVGRHRDHQVASLNDR [V13W] equal to or greater than -0.3?
Response given: f
